tested_system: truncated form of PTP1B (first 321 amino acids) (Homo sapiens)
Construct: a truncated form of PTPI B (corresponding to the first 321 amino acids)
Sequence (P18031 1-321 limits assumed): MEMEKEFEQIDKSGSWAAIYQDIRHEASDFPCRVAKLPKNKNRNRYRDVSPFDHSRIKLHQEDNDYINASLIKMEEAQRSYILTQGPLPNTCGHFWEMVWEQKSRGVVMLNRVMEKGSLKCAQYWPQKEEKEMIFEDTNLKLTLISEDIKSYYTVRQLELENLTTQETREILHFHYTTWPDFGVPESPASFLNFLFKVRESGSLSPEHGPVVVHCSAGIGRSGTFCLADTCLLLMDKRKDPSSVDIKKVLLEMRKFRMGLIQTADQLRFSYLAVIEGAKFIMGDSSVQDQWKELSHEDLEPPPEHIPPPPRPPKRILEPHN
procedure_details: Inhibition of PTP1B, p-nitrophenyl phosphate substrate, enzyme kinetic analysis
stated_conditions: truncated PTP1B expressed in E. coli; substrate p-nitrophenyl phosphate 0.16 to 10 mM; 50 mM HEPES pH 7.0; 25° C., 60 minutes
pKi: −log10 of the molar value.
Form field: pKi (one value per entry).
measured_quantity: pKi

> print(dat)
                                   molecule  measured.quantity  observed.result
1  COC(=O)c1cc(OC)cc2c1CN(CC1Cc3c(sc(NC(=O)C(=O)O)c3C(=O)O)CN1)C2=O (stereo not drawn) [Example 46]                pKi             6.52
2  O=C(O)C(=O)Nc1sc2c(c1C(=O)O)CC(CNC(=O)C(=O)c1c[nH]c3ccccc13)NC2 (stereo not drawn) [Example 36]                pKi             6.08
3  CC(=O)N(Cc1ccc(Oc2ccccc2)cc1)C[C@@H]1NCCc2c1sc(NC(=O)C(=O)O)c2C(=O)O [Example 42]                pKi             6.66
